Tested on: pigweed (Amaranthus retroflexus)
Test: Test A pre-/postemergence: pigweed
Type: in vivo
Conditions: Postemergence, 125 g ai/ha; 0 to 100 scale, 0 is no effect, 100 is complete control
testReadout: Pigweed plant response rating
A bare number is all that is needed in reply.

Before answering, review these 4 worked examples.
Cc1nn(-c2nc(Cl)ns2)nc1C(=O)c1cccc(C(F)(F)F)c1 [Compound 59]
0
Cc1nn(-c2ccc(C(F)(F)F)cc2)nc1Oc1cccc(Cl)c1 [Compound 84]
40
Cc1nn(-c2ccc(C(F)(F)F)cc2)nc1Sc1cccc(C(F)(F)F)c1 [Compound 88]
80
CSc1nn(-c2ccc(F)cc2)nc1Cc1ccnc(C(F)(F)F)c1 [Compound 27]
90

So, FC(F)Oc1nn(-c2ccc(C(F)(F)F)cc2)nc1Cc1ccnc(C(F)(F)F)c1 [Compound 26] ? Its Pigweed plant response rating was 100

* * *

System: large crabgrass (Digitaria sanguinalis)
Assay: Test C pre-/postemergence: large crabgrass
Assay type: in vivo
Details: Preemergence, 250 g ai/ha; scale 0 to 100, 0 no effect, 100 complete control
testReadout: Plant response rating, Crabgrass, Large
Respond with the number and no other words.

Sample records with Plant response rating, Crabgrass, Large:
COc1nn(-c2ccc(C(F)(F)F)cc2)nc1Cc1ccnc(C(F)F)c1 [Compound 138]
100
CCc1nn(-c2ccc(F)cc2)nc1Cc1ccnc(C(F)(F)F)c1 [Compound 154]
100

Sample Cc1nn(-c2ccc(C(F)(F)F)cn2)nc1Cc1cccc(C(F)(F)F)c1 [Compound 106] ; Plant response rating, Crabgrass, Large observed: 100

* * *

Test system: johnsongrass (Sorghum halepense)
Experiment: Test C pre-/postemergence: johnsongrass
Assay type: in vivo
Details: Preemergence, 125 g ai/ha; scale 0 to 100, 0 no effect, 100 complete control
testReadout: Plant response rating, Johnsongrass

Solved cases below.
CCCc1nn(-c2ccc(F)c(F)c2)nc1Oc1ccnc(C(F)(F)F)c1 [Compound 172]
95
CCc1nn(-c2ccc(F)c(F)c2)nc1Oc1ccnc(C(F)(F)F)c1 [Compound 171]
75
CCOc1nn(-c2ccc(Cl)cc2)nc1Cc1ccnc(C(F)(F)F)c1 [Compound 188]
95
CCc1nn(-c2ccc(F)cc2)nc1Cc1ccnc(C(F)(F)F)c1 [Compound 154]
90

Here is the next item to consider.
Recorded Plant response rating, Johnsongrass (compound COc1nn(-c2ccc(C(F)(F)F)cc2)nc1Cc1ccnc(C(F)(F)F)c1 [Compound 15] ): 90

* * *

Listed here: items and their measured Plant response rating, Ducksalad.
Tested on: ducksalad (Heteranthera limosa)
Test: Test C flooded paddy test: ducksalad
Format: in vivo
Conditions: Flood, 31 g ai/ha; scale 0 to 100 (0 no effect, 100 complete control)
Source text: Plant species in the flooded paddy test consisted of rice (Oryza sativa), sedge, umbrella (small-flower umbrella sedge, Cyperus difformis), ducksalad (Heteranthera limosa) and barnyardgrass (Echinochloa crus-galli) grown to the 2-leaf stage for testing. […] Treated plants and controls were maintained in a greenhouse for 13 to 15 days, after which time all species were compared to controls and visually evaluated. […]
Reply with just the number.

Worked examples follow.
COc1nn(-c2ccc(C(F)(F)F)cc2)nc1C(O)c1ccnc(C(F)(F)F)c1 (stereo not shown) [Compound 78]
0
Cc1nn(-c2ccc(C(F)(F)F)cc2)nc1Cn1ccc(C(F)(F)F)n1 [Compound 117]
30
Cc1nn(-c2ccc(C(F)F)cn2)nc1C(=O)c1cccc(C(F)(F)F)c1 [Compound 68]
0

Summary: COc1nn(-c2ccc(C(F)(F)F)cc2)nc1Cn1cnc(C(F)(F)F)n1 [Compound 18] , ducksalad (Heteranthera limosa), Plant response rating, Ducksalad = 0

For COc1nn(-c2ccc(C(F)(F)F)cc2)nc1C(F)c1ccnc(C(F)(F)F)c1 (stereo not shown) [Compound 80] on ducksalad (Heteranthera limosa), measured Plant response rating, Ducksalad was 0

The reported ducksalad (Heteranthera limosa) Plant response rating, Ducksalad of Cc1nn(-c2ccc(C(F)(F)F)cn2)nc1Oc1ccnc(C(F)(F)F)c1 [Compound 23] is 50

The reported Plant response rating, Ducksalad value, ducksalad (Heteranthera limosa), for Cc1nn(-c2ccc(Cl)nc2)nc1C(=O)c1cccc(C(F)(F)F)c1 [Compound 72] reads 0

* * *

A collection of compounds and their measured Plant response rating, Pigweed
Test system: pigweed (Amaranthus retroflexus)
Test: Test A pre-/postemergence: pigweed
Type: in vivo
Settings: Preemergence, 500 g ai/ha; 0 to 100 scale, 0 is no effect, 100 is complete control

// worked examples, Plant response rating, Pigweed included
Cc1nn(-c2ccc(C(F)(F)F)cc2)nc1Oc1cc(C(F)(F)F)nn1C
90
Cc1nn(-c2ccc(C(F)(F)F)cn2)nc1Cn1cnc(C(F)(F)F)n1
100
Cc1nn(-c2ccc(C(F)(F)F)cc2)nc1Oc1cccc(C(F)(F)F)c1
90
Cc1nn(-c2ccc(F)cc2)nc1Oc1ccnc(C(F)(F)F)n1
100

The record that follows has no Plant response rating, Pigweed shown yet.
Tested on pigweed (Amaranthus retroflexus), the item CCc1nn(-c2ccc(F)cc2)nc1Cn1ccc(C(F)(F)C(F)(F)F)n1 showed Plant response rating, Pigweed equal to 80

* * *

Recorded Plant response rating, Chickweed, one value per entry.
Tested on: chickweed (common chickweed, Stellaria media)
Assay: Test C postemergence: chickweed
Type: in vivo
Conditions: 250 g ai/ha, scale 0 to 100
Simply state the number, no unit and no words.

FC(F)(F)c1ccc(-n2nc(Cl)c(Cc3ccnc(C(F)(F)F)c3)n2)cc1
100
CCCc1nn(-c2ccc(F)cc2F)nc1Oc1ccnc(C(F)(F)F)c1
95
CCCc1nn(-c2ccc(F)cc2)nc1Oc1ccnc(C(F)(F)F)c1
100

So, CCOc1nn(-c2ccc(Cl)cc2)nc1Cc1ccnc(C(F)(F)F)c1 ? Its Plant response rating, Chickweed was 95

* * *

Test system: foxtail, giant (giant foxtail, Setaria faberii)
Assay: Test A pre-/postemergence: foxtail, giant
Assay type: in vivo
Details: Postemergence, 500 g ai/ha; 0 to 100 scale, 0 is no effect, 100 is complete control
Each entry below carries its recorded Foxtail, Giant plant response rating.
Enter a number only.

CCCc1nn(-c2ccc(F)cc2F)nc1Oc1ccnc(C(F)(F)F)c1
90
CC(C)(C)c1nn(-c2ccc(F)cc2)nc1Cc1ccnc(C(F)(F)F)c1
0
CCOc1nn(-c2ccc(F)cc2)nc1C(=O)c1ccnc(C(F)(F)F)c1
70
CCc1nn(-c2ccc(F)c(C(F)(F)F)c2)nc1Oc1ccnc(C(F)(F)F)c1
90

With those in mind, consider the next compound.
The compound identified as CCc1nn(-c2ccc(F)cc2F)nc1Oc1ccnc(C(F)F)c1 registered its Foxtail, Giant plant response rating at 80

* * *

Test system: wheat (Triticum aestivum)
Assay: Test A pre-/postemergence: wheat
Type: in vivo
Settings: Postemergence, 125 g ai/ha; 0 to 100 scale, 0 is no effect, 100 is complete control
testReadout: Wheat plant response rating

Worked cases, answers included:
Cc1nn(-c2ccc(F)cc2)nc1Oc1ccnc(C(F)(F)F)n1
0
Cc1nn(-c2ccccn2)nc1C(=O)c1cccc(C(F)(F)F)c1
0

Turning now to a further record.
Cc1nn(-c2ccc(F)cc2)nc1Oc1nccc(C(F)(F)F)n1 has a reported Wheat plant response rating of 0

* * *

Tested on: barnyardgrass (Echinochloa crus-galli)
Experiment: Test C flooded paddy test: barnyardgrass
Format: in vivo
Conditions: Flood (flooded paddy test), 250 g ai/ha; visual rating after 13 to 15 days, scale 0 to 100 (0 no effect, 100 complete control)
We begin with a simple list: items and their reported Plant response rating, Barnyardgrass.
Enter the number alone.

Cc1nn(-c2ccc(F)cc2)nc1Cn1ccc(C(F)(F)F)n1
0
Cc1nn(-c2ccc(C(F)(F)F)cc2)nc1Cn1cnc(C(F)(F)F)n1
0
Cc1nn(-c2ccc(F)cc2)nc1Oc1ccnc(C(F)(F)F)n1
60
Cc1nn(-c2ccc(C(F)(F)F)cc2)nc1Oc1cccc(Cl)c1
10
Cc1nn(-c2ccccn2)nc1C(=O)c1cccc(C(F)(F)F)c1
0

compound Cc1nn(-c2ccc(C(F)(F)F)cc2)nc1Cn1cc(C(F)(F)F)cn1 , Plant response rating, Barnyardgrass observed: 0

Note to self: Plant response rating, Barnyardgrass recorded for Cc1nn(-c2ccc(C(F)(F)F)cn2)nc1Cc1cccc(C(F)(F)F)c1 was 40

Recorded Plant response rating, Barnyardgrass (compound Cc1nn(-c2ccc(C(F)(F)F)cn2)nc1Oc1ccnc(C(F)(F)F)c1 ): 25

* * *

Test system: morningglory (Ipomoea spp.)
Experiment: Test A pre-/postemergence: morningglory
Assay type: in vivo
Details: Preemergence, 500 g ai/ha; 0 to 100 scale, 0 is no effect, 100 is complete control
testReadout: Plant response rating, Morningglory
Enter a number only.

# annotated cases, reported Plant response rating, Morningglory shown
CCc1nn(-c2ccc(F)cc2)nc1Cn1ccc(C(F)(F)C(F)(F)F)n1 [Compound 10]
10
COc1nn(-c2ccc(C(F)(F)F)cc2)nc1C(O)c1ccnc(C(F)(F)F)c1 (stereo not drawn) [Compound 78]
10

GET /values?item= Cc1nn(-c2ccc(F)cc2)nc1Oc1ccnc(C(F)(F)F)n1 [Compound 101] &system= morningglory (Ipomoea spp.) returns Plant response rating, Morningglory: 10

All values here come from patent US9302999B2.
